- ASSAY REMARKS: folding enthalpy; higher = less favourable; fluorescence melt of hairpins on a sequencing array, two-state fit
- EXPERIMENTAL CONDITIONS: sodium 0.088 M
Please use y whenever folding enthalpy is not below -100 kJ/mol, and n whenever it is.

In plain terms: is recorded folding enthalpy at least -100 kJ/mol for GAGATACGAAAGTAACTC (((.(((....))).))) ?
n

Evaluate GTGAGCGCGAAAGCGCAC (((..(((....)))))) : folding enthalpy at minimum -100 kJ/mol?
y

###

- ASSAY REMARKS: melting temperature; fluorescence melt of hairpins on a sequencing array, two-state fit, raised by 9.35 °C to match UV melts
- EXPERIMENTAL CONDITIONS: sodium 0.088 M
Answer each item with its documented Tm.
One number for each entry, in °C.

Guide cases for Tm, answers given:
In [3]: df
Out[3]:
                          entry_sequence  scale_unit  observed
0  GAAGAAGGAAACTCCTTC ((((.((....)).))))          °C      30.7
1    GCAGCCGAAAGGCCTGC ((((((....))).)))          °C      61.3
2  GCCAGCGAAAGCTTCGGC ((((((....)))..)))          °C      47.8
3  GCTGGCGAAAGCCTCAGC ((((((....)))..)))          °C      46.6
4  GACTGCCGAAAGGCCGTC (((.(((....))).)))          °C      53.4

Reported Tm, sequence GTGTACGAAAGTAATCAC ((((((....)))..))) : ____
30.2

###

- ASSAY REMARKS: folding enthalpy; higher = less favourable; fluorescence melt of hairpins on a sequencing array, two-state fit
- EXPERIMENTAL CONDITIONS: sodium 0.088 M
Could you please classify the records by folding enthalpy using these ranges: class 1: < -30 kcal/mol; class 2: ≥ -30 kcal/mol and < -20 kcal/mol; class 3: ≥ -20 kcal/mol

Please review the following examples before continuing.
>>> df
                          entry_sequence  classification
0  GTGCGCACGAAAGTGCAC (((..(((....))))))         class 3
1      GATCTCCAACGAGATC ((((((....))))))         class 1
2  GAATTTGGAAACAAATCC (.(((((....))))).)         class 3
3  GCGTTGCCGAAAGGCCGC (((..(((....))))))         class 3
4      GATCAGCGACCTGATC ((((((....))))))         class 1

Into which category would you place GTGTCAGCGAAAGCTCAC (((..(((....)))))) ?
class 3

###

For each record, write down the corresponding Tm.
- ASSAY REMARKS: melting temperature; fluorescence melt of hairpins on a sequencing array, two-state fit, raised by 9.35 °C to match UV melts
- EXPERIMENTAL CONDITIONS: sodium 0.088 M
One number for each entry, in °C.

Illustrative cases are given below, each with its answer.
>>> df
                          entry_sequence  assay_readout  observed
0  GCTTGCGGAAACGCAAAC (.(((((....))))).)             Tm      44.6
1  GGACGGGGAAACCTGTCC ((((.((....)).))))             Tm      56.8
2      GATCTCCGCTGAGATC ((((((....))))))             Tm      53.1
3  GGTTTTTCGAAAGAAACC (((..(((....))))))             Tm        34

Count: 4. Required value per item: Tm.
1. GCTATGCGAAAGCACCGC ((..(((....)))..))
2. GCCTCGGGAAACTGGGGC (((.(.(....).).)))
3. GATCGTCCTTACGATC ((((((....))))))
4. GTAAGTGGAAACATTTAC ((((.((....)).))))

1: 31.9; 2: 47.4; 3: 53.8; 4: 32.3

Fill in Tm for each of the 2 sequences listed.
1. GTCAAGGGAAACCTCGAC (((.(((....))).)))
2. GATCCTCACCAGGATC ((((((....))))))

1. 37.5
2. 50.9

Could I get Tm for every one of these entries?
1. GTGTGAGGAAACTCATGC (..((((....))))..)
2. GTGAACTCGAAAGAGCAC (((..(((....))))))
3. GTCCAACGAAAGTTCGAC (((.(((....))).)))
4. GTTCGCGAAAGCGTAAC ((((((....))).)))

1. 36.8
2. 35.1
3. 35.9
4. 48

Hello, I would appreciate it if you could give Tm for each entry below.
1. GGGGTAACGAAAGTTCCC (((..(((....))))))
2. GGACACGAAAGTGGATCC ((((((....)))..)))
3. GACACCCGAAAGGGGTC (((.(((....))))))
4. CGGCCGGAAACGGCGCCG ((((((....)))..)))
5. GCGAAGCGAAAGCCCCGC (((..((....))..)))
6. GCTCTCACGAAAGTGAGC (((..(((....))))))
7. GTTTCTGGAAACAGAAAC (((((((....)))))))
8. GCGTCGGCGAAAGCCCGC (((..(((....))))))

49.9
40.3
54.8
39.2
36.3
35.8
55.1
58.7

###

- ASSAY REMARKS: folding enthalpy; higher = less favourable; fluorescence melt of hairpins on a sequencing array, two-state fit
- EXPERIMENTAL CONDITIONS: sodium 0.088 M
# label = T if folding enthalpy >= -30 kcal/mol else F

                          entry_sequence  classification
0  GCATGCGAAAGCATCTGC ((((((....)))..)))               T
1  GGGGTTCGAAAGAATCCC (((.(((....))).)))               F
2              GCGTGGATACGC ((((....))))               T
3  GTCCGCGAAAGCGAGGAC ((((((....)))..)))               T
4  GCTATCGAAAGATCCAGC ((((((....)))..)))               T
5  GCTCGGCGAAAGCCCGGC ((..(((....)))..))               T
6      GATCTGAACACAGATC ((((((....))))))               F
7      GATCCGGAGACGGATC ((((((....))))))               F
8  GTTCTGGGAAACCAGAAC (((((((....)))))))               F
9    GAGATGCGAAAGCACTC (((.(((....))))))               T

Confirm if folding enthalpy reported for the sequence TCGTAGAAATACGA (((((....))))) is -30 kcal/mol or above.
T

Exam item: decide whether the reported folding enthalpy for GAGACAGAAATGTCTC ((((((....)))))) is at least -30 kcal/mol.
F

###

- ASSAY REMARKS: melting temperature; fluorescence melt of hairpins on a sequencing array, two-state fit, raised by 9.35 °C to match UV melts
- EXPERIMENTAL CONDITIONS: sodium 0.088 M
ASSAY READOUT: Tm (°C)
One number for each entry, in °C.

Examples with their reported Tm follow.
>>> df
                          entry_sequence  assay_readout  observed
0  GACTCCGAAAGGACTGTC ((((((....)))..)))             Tm      32.7
1  GATGTTGGAAACAACACC (.(((((....))))).)             Tm      34.8
2  GCGTATGGAAACATACAC (.(((((....))))).)             Tm      36.7
3  GGTAGCGAAAGCTATACC ((((((....)))..)))             Tm        44

Batch lookup, Tm per entry.
1. GATCCTCCGTAGGATC ((((((....))))))
2. GGACTAGGAAACTAGTCC (((((((....)))))))
3. GATCCTTTACAGGATC ((((((....))))))
4. GGGACTGGAAACGGTCCC (((((.(....).)))))
5. CGTGGCGGAAACGCGACG (((.(((....))).)))
6. GGTGACGGAAACACCACC ((((..(....)..))))
7. GTTAGCGAAAGCTCAAC ((((((....))).)))
8. GATCTCAGGTGAGATC ((((((....))))))

[48.5, 61.5, 51.1, 57.6, 57.7, 34.5, 32.7, 53.6]
